TGI: recorded values
System: CAKI-1 renal
Assay: NCI tumour cell line growth inhibition, 48 h

Field: example entries. Status: answers known.
{"Compound": "COc1ccc(C2C(=O)c3c(OC)cc(OC)cc3OC2c2cccnc2)cc1 (stereo not given)", "Measured On": "CAKI-1 renal", "Experimental Value": "> 100 µM"}
{"Compound": "COc1ccc(-c2csc(NC(=O)CN3CCN(c4cc5c(cc4F)c(=O)c(C(=O)O)cn5C4CC4)CC3)n2)cc1", "Measured On": "CAKI-1 renal", "Experimental Value": "> 100 µM"}
{"Compound": "N#CC1=C(O)NC(O)=C(C#N)C1c1ccc(C2C(C#N)=C(O)NC(O)=C2C#N)cc1", "Measured On": "CAKI-1 renal", "Experimental Value": "> 100 µM"}
{"Compound": "Nc1nc(N)c2nc3c(nc2n1)CCCCCCCCCC3", "Measured On": "CAKI-1 renal", "Experimental Value": "> 100 µM"}

Supply recorded TGI for "CCOC(=O)c1c(SC(=O)c2ccc(OC)cc2)n(-c2ccccc2)c(=S)n(-c2ccccc2)c1=O" here.
> 100 µM

Supply recorded TGI for "CC(C)c1ccccc1SCc1cc(=O)cc(CSc2ccccc2C(C)C)o1" here.
49.4 µM

Supply recorded TGI for "C[C@@H]1CC(=O)C[C@@H]2CC[C@H]3[C@@H]4CC[C@H](OC(=O)c5cccc6cc7ccccc7nc56)[C@H]4CC[C@@H]3[C@H]21" here.
33.7 µM

Supply recorded TGI for "CN(CCNC(=O)c1c[nH]c2c1Cc1ccccc1-2)CCNC(=O)c1c[nH]c2c1Cc1ccccc1-2" here.
> 100 µM

Supply recorded TGI for O=C1OC(=O)C2C3C=CC(C12)C1C2C=CC2C31 (stereo not given) here.
> 100 µM

Supply recorded TGI for C/C(=C/CC[C@]1(CO)CC[C@]2(C)[C@H](CC[C@@H]3[C@@]4(C)CC[C@H](OC5OC(CO)C(O)C(O)C5OC5OC(CO)C(O)C(O)C5O)C(C)(C)[C@@H]4CC[C@]32C)[C@H]1O)CO (stereo not given in full) here.
> 100 µM

Supply recorded TGI for "Cn1cc(C(=O)c2ccccc2)cc(C(=O)c2ccccc2)c1=O" here.
> 100 µM

Supply recorded TGI for "Nc1nc(Cl)c(Cl)c(NCC2(O)CCC2)n1" here.
29.6 µM

Supply recorded TGI for "N#Cc1cccc(C=NC23CC4CC(CC(C4)C2)C3)c1" here.
> 100 µM

Supply recorded TGI for "N/C1=C/C(=O)NC(=O)c2c(c3ccccc3oc2=O)C1" here.
> 100 µM

Supply recorded TGI for C=C(Cl)C(Cl)(CCl)CCC(Br)C(C)(C)Br (stereo not given) here.
> 10 µM

Supply recorded TGI for "COc1ccccc1C1(c2c(OC)c(=O)c2=O)SCCCS1" here.
> 100 µM

Supply recorded TGI for "CC(C)=CC[C@]12CCN(C)[C@H]1N(S(=O)(=O)c1ccccc1)c1ccccc12" here.
> 100 µM

Supply recorded TGI for "O=c1c(Cc2ccc(Cl)cc2)nnc2sc(-c3ccc(-c4ccc(Cl)cc4Cl)o3)nn12" here.
> 100 µM

Supply recorded TGI for "CCc1c(-c2ccc(OC)cc2)oc(OC)c(C)c1=O" here.
> 100 µM

Supply recorded TGI for "COc1cc2c(/C=C3/C(=O)Nc4ccc(Cl)cc43)c(Cl)[nH]c2cc1C" here.
14.8 µM

###

Tested on: SR leukemia
Assay: NCI tumour cell line growth inhibition, 48 h
Assay Endpoint: TGI

{"Compound": "COc1cccc(SSc2cccc(OC)c2C(=O)O)c1C(=O)O", "TGI": "> 100 µM"}
{"Compound": "NC(Cc1ccc2nc3c4ccccc4c(=O)cc-3oc2c1)C(=O)O (centres undefined)", "TGI": "> 100 µM"}
{"Compound": "Cc1c2c(n(CC(c3ccccc3)c3ccccc3)c1C)NN=C(C#N)S2(=O)=O", "TGI": "> 100 µM"}
{"Compound": "O=C1CSC(c2cccc(Cl)c2)N1c1ccc(-c2ccc(-n3c(-c4ccccc4)nc4ccccc4c3=O)cc2)cc1 (centres undefined)", "TGI": "> 100 µM"}
{"Compound": "C#CC(O)/C=C/CCCCCCC#CC/C=C\\CC#CCCCCCCCCC(O)C#C (centres undefined)", "TGI": "> 22 µM"}

// next entry
Supply recorded TGI for "CC(=O)/C=C/c1ccc(OCc2ccc(Cl)cc2)cc1" here.
> 1000 µM

###

System: 786-0 renal
Assay: NCI tumour cell line growth inhibition, 48 h
Assay Endpoint: TGI (µM)
Just the number in µM, nothing appended.

Field: example entries. Status: answers known.
{"Compound": "CC1OC(OC2C(O[C@H]3CC[C@@]4(C)C(=CC[C@H]5[C@@H]6C[C@@H]7O[C@]8(CC[C@@H](C)CO8)[C@@H](C)[C@@H]7[C@@]6(C)CC[C@@H]54)C3)OC(CO)C(O)C2O)C(O)C(O)C1O (stereo not given in full)", "Unit Descriptor": "µM", "Experimental Value": 2.37}
{"Compound": "COc1ccc(-c2c3c(nc4n[nH]c(-c5ccc(Cl)cc5)c24)-c2ccccc2C(=O)C3=O)cc1", "Unit Descriptor": "µM", "Experimental Value": 4.59}
{"Compound": "CC1OC(CC(=O)O)CC2=C1C(=O)c1c(O)cccc1C2=O (stereo not given)", "Unit Descriptor": "µM", "Experimental Value": 0.336}
{"Compound": "O=C1CC/C(=C/COc2cc(=O)oc3ccccc23)O1", "Unit Descriptor": "µM", "Experimental Value": 15.9}
{"Compound": "NC1(Cc2ccc(Cl)cc2)CCN(c2ncnc3[nH]ccc23)CC1", "Unit Descriptor": "µM", "Experimental Value": 17}

Supply recorded TGI for "COc1cc2ccnc3c(=C(SC)SC)c(=O)c(c1OC)c23" here.
23.1

Supply recorded TGI for CC1=Nc2c([nH]c(=S)[nH]c2=O)NC(c2c(Cl)cccc2Cl)C1 (stereo not given) here.
1.76

Supply recorded TGI for COc1cc(-c2c3c(cc4c2OCO4)[C@@H](Nc2ccc(-c4ccc(-c5ccc(N[C@@H]6c7cc8c(cc7C(c7cc(OC)c(O)c(OC)c7)[C@H]7C(=O)OC[C@H]67)OCO8)cc5)cc4)cc2)[C@H]2COC(=O)[C@@H]2C3)cc(OC)c1O (stereo not given in full) here.
6.22

###

TGI: recorded values
System: HCC-2998 colon
Experiment: NCI tumour cell line growth inhibition, 48 h

Field: example entries. Status: answers known.
{"Molecule": "CCC(C)C(=O)OCC(=O)c1ccc(-c2ccccc2)cc1 (centres undefined)", "Experimental Value": "> 100 µM"}
{"Molecule": "COc1ccc(C2C(=O)c3c(OC)cc(OC)cc3OC2c2cccnc2)cc1 (centres undefined)", "Experimental Value": "> 100 µM"}
{"Molecule": "O=C1C(c2c(O)[nH]c3ccc(Br)cc23)=Nc2ccc(Br)cc21", "Experimental Value": "> 100 µM"}
{"Molecule": "COc1ccc(C(=O)c2sc3nc(-c4cccs4)ccc3c2N)cc1OC", "Experimental Value": "> 100 µM"}
{"Molecule": "CN1CCN(c2nc(-c3csc(-c4cccs4)n3)cc3ccccc23)CC1", "Experimental Value": "3.4 µM"}

Supply recorded TGI for CCC(C)C1=C(O)[N+]2([O-])Oc3ccc(-c4c(O)c(O)c(-c5ccc(OC(C)=O)cc5)c(OC(C)=O)c4OC(C)=O)cc3OC2(C(C)CC)C(=O)N1O (centres undefined) here.
41.5 µM

Supply recorded TGI for "Nc1nc(N)c2nc3c(nc2n1)CCCCCCCCCC3" here.
> 100 µM

Supply recorded TGI for "CC([O-])=C1C(=O)c2ccccc2C1=O.CC([O-])=C1C(=O)c2ccccc2C1=O.CC[O-].CC[O-].[Ti+4]" here.
> 100 µM

Supply recorded TGI for CC1(C)OC2OC(C(COS(=O)(=O)C(F)(F)F)N=[N+]=[N-])C(OC(=O)c3ccccc3)C2O1 (centres undefined) here.
> 100 µM

###

Test system: SK-MEL-5 melanoma
Experiment: NCI tumour cell line growth inhibition, 48 h; in the data active = GI50 below about 0.43 µM; inactive = the rest
Output constraint: value belongs to True (active), False (inactive)

Consider the worked cases shown below.
{"Given Smiles": "CN1CCN(c2nc(-c3csc(-c4cccs4)n3)cc3ccccc23)CC1", "Measured On": "SK-MEL-5 melanoma", "Class Assignment": "False"}
{"Given Smiles": "CCCCCCNCc1cc(C(C)(C)C)cc(CNCCCCCC)c1O", "Measured On": "SK-MEL-5 melanoma", "Class Assignment": "False"}
{"Given Smiles": "O=C1c2cccnc2C(=O)c2c1c(C(=O)OCCCN1CCCCC1)c1ccccn21", "Measured On": "SK-MEL-5 melanoma", "Class Assignment": "True"}
{"Given Smiles": "COc1cc(C)c2sc3ccccc3c(=O)c2c1NCCN(C)C", "Measured On": "SK-MEL-5 melanoma", "Class Assignment": "False"}
{"Given Smiles": "Cc1[nH]c2cc(F)ccc2c1-c1nc2c3cccnc3c3ncccc3c2[nH]1", "Measured On": "SK-MEL-5 melanoma", "Class Assignment": "True"}

# next compound below
I would be grateful if you could indicate the recorded call for "CCCCCCCCCCCCCC[n+]1ccc(C)cc1" .
False
